Tested system: T1, human GPRC5D protein (human, UniProt Q9NZD1 1-345)
T1 construct: also called hGPRC5D; CHO-K1-hGPRC5D^hi
T1 sequence (Q9NZD1 whole entry): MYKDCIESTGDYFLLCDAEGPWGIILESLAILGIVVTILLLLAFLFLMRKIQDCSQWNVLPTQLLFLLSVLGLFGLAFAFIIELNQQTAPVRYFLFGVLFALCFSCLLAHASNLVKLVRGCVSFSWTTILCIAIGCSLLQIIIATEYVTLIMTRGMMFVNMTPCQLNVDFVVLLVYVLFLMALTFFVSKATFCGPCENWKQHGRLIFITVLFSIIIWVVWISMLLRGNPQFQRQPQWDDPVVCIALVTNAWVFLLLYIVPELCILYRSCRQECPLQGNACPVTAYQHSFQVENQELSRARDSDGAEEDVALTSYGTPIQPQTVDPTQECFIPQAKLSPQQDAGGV
Measurement protocol: FACS on CHO-K1-hGPRC5D^hi cells

>  <Binder>
Chi-89 (antibody, human IgG1, kappa, V domains shown, Human-mouse chimeric antibody, human IgG1 heavy chain constant region and Kappa light chain constant region; also called chimeric antibody Chi-89) VH: EVQLVESGGDLVKPGGSLKLSCAASGFTFSSYGMSWVRQTPDKRLEWVATISSGGSYTYYPDSVKGRFTFSRDNAKNTLYLQMSSLKSEDTAMYYCVRQALRYHMDSWGQGTSVTVSS VL: DIVMTQSQKFMSTSVGDRVSVTCKASQNVGTNVAWYQQKPGQSPKALIYSASYRYSGVPDRFTGSGSGTDFTLTISNVQSEDLADFFCQQYYSYPWTFGGGTKLEIKR

>  <binding result>
binds

$$$$
>  <Binder>
Chi-131 (antibody, human IgG1, kappa, V domains shown, Human-mouse chimeric antibody, human IgG1 heavy chain constant region and Kappa light chain constant region; also called chimeric antibody Chi-131) VH: EVQLQQSGPELVKPGASVKMSCKASGYTFTNYVMHWVKQKPGQGLEWIGYFNPYNDGTNYNEKFKGKATLTSDKSSNTAYMELSSLTSEDSAVYYCARGGVRRYFDVWGAGTTVTVSS VL: DIQMTQSPSSLSASLGERVSLTCRASQDIGSNLNWLQLGPDGTIKRLIYATFSLDSGVPKRFSGSRSGSDYSLTISSLESEDFVDYYCQQYANFPPTFGGGTKLEIKR

>  <binding result>
binds

$$$$
